The following molecules are listed with their measured IC50 values.
- targetOfAssay: IRAK4 enzyme (Homo sapiens (Human))
- Sequence (Q9NWZ3 whole entry): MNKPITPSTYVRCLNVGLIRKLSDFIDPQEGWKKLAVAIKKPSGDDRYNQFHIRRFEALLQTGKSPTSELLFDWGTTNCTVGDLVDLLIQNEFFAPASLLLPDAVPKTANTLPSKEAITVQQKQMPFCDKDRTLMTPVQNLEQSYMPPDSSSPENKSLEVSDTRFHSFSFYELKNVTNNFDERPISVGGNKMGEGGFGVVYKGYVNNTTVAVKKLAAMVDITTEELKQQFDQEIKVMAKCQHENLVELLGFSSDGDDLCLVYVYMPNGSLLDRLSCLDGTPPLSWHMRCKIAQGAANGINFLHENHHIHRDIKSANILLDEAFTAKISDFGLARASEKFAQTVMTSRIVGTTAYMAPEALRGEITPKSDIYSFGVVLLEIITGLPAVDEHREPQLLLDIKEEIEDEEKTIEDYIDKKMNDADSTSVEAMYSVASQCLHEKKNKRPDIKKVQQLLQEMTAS
- measurementProtocol: biochemical
- Assay type: biochemical
- conditionParameters: IRAK4 enzyme, TR-FRET (HTRF), 500 μM ATP
A number alone suffices; assume nM.

Previously resolved entries follow.
{"molecule": "CC(C)(O)[C@H](F)CNC(=O)c1cnc(-c2ccc3cc(C#N)cnn23)cc1Nc1cnc(C#N)nc1 [Example 596]", "recordedEndpoint": "IC50", "unitSymbol": "nM", "val": 3}
{"molecule": "CC(C)(O)[C@H](F)CNC(=O)c1cnc(-c2ccc3cc(C#N)cnn23)cc1Nc1cncc(C(N)=O)c1 [Example 592]", "recordedEndpoint": "IC50", "unitSymbol": "nM", "val": 1}
{"molecule": "CN1C(=O)C(C)(C)c2ccc(Nc3cc(-c4ccc5cc(C#N)cnn45)ncc3C(=O)NC[C@@H](F)C(C)(C)O)cc21 [Example 652]", "recordedEndpoint": "IC50", "unitSymbol": "nM", "val": 2}
{"molecule": "COC(=O)c1ccc(Nc2cc(-c3ccc4cc(C#N)cnn34)ncc2C(=O)NC[C@@H](F)C(C)(C)O)cc1OC [Example 564]", "recordedEndpoint": "IC50", "unitSymbol": "nM", "val": 23}

In the following, a different molecule is considered.
GET /value?item= CC(C)(O)[C@H](F)CNC(=O)c1cnc(-c2ccc3cc(C#N)cnn23)cc1Nc1ccc(C#N)nc1 [Example 603] &field=IC50 returns 1
